# maps each entry to its EC50
- System: WEEV California
- PROCEDURE SUMMARY: microbe, parasite or virus in culture
- Type: cell-based
- SETUP CONDITIONS: Western equine encephalitis virus, Vero 76, 48 h, read-out: WEEV California EC50 nM

Solved entries (count: 3):
SMILES	ASSAY VALUE
COc1ccc(-n2c([C@H]3CCCN3)nc3cc(F)c(C#N)cc3c2=O)cc1	51 to 150 nM
COc1ccc(-n2c([C@H]3CCN(C)C3)nc3c(C)cc([N+](=O)[O-])cc3c2=O)cc1F	151 to 500 nM
COc1ccc(-n2c([C@H]3C[C@H](F)CN3)nc3c(-c4cccnc4)cc([N+](=O)[O-])cc3c2=O)cc1	1 to 50 nM

Kindly consider the entry below.
Return the recorded EC50 value; entry: COc1ccc(-n2c([C@@H]3CCCN3)nc3c(-c4cccnc4)cc(C#N)cc3c2=O)cc1F
1 to 50 nM
